Hey, just so you know, these numbers are from patent US20220363763A1.

Reported pEC50 by item:
Test Target: T1, human PD-L1-Fc protein (human, UniProt Q9NZQ7 19-239)
T1 construct: Coated on ELISA plates; also called huPD-L1; not shown: Fc part
T1 sequence (Q9NZQ7 19-239 limits assumed): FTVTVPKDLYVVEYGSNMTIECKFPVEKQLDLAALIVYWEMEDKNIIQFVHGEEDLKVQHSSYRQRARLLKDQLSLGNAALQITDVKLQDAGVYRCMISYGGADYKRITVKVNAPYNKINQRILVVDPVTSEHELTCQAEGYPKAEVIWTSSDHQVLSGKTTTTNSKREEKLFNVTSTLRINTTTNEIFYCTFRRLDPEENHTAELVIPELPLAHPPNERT
Test: ELISA on coated human PD-L1-Fc; EC50 table has no unit, x axis Ab(nM)
// pEC50 here means minus log10 of the molar concentration (mol/L)

Field request: pEC50 | item: Hu1210-2 (antibody, V domains shown, Hu1210 VH.1a x Vk.1; human gamma 1 / kappa constant domains) VH: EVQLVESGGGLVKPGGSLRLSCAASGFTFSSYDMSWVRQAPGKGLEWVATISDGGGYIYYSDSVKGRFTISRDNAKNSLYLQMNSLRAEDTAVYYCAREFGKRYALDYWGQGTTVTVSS VL: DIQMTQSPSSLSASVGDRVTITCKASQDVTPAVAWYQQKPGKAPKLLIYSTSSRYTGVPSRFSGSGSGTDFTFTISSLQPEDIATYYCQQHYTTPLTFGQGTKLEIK
9.77

Field request: pEC50 | item: H1210 chimera (antibody, V domains shown, also called chimeric antibody) VH: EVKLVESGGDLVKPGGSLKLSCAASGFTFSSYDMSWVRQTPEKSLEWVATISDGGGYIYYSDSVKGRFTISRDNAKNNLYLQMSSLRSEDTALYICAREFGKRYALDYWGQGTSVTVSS VL: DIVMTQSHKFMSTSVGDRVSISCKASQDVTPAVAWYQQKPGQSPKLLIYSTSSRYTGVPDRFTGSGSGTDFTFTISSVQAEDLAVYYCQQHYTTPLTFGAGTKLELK
9.80

Field request: pEC50 | item: Hu1210-3 (antibody, V domains shown, Hu1210 VH.1b x Vk.1; human gamma 1 / kappa constant domains) VH: EVQLVESGGGLVKPGGSLRLSCAASGFTFSSYDMSWVRQAPGKSLEWVATISDGGGYIYYSDSVKGRFTISRDNAKNSLYLQMNSLRAEDTAVYICAREFGKRYALDYWGQGTTVTVSS VL: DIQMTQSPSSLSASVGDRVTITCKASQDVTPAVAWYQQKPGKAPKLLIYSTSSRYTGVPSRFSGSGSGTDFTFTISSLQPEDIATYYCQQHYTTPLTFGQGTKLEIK
9.73

Field request: pEC50 | item: Hu1210-1 (antibody, V domains shown, Hu1210 VH.1 x Vk.1) VH: EVQLVESGGGLVKPGGSLRLSCAASGFTFSSYDMSWVRQAPGKGLEWVSTISDGGGYIYYSDSVKGRFTISRDNAKNSLYLQMNSLRAEDTAVYYCAREFGKRYALDYWGQGTTVTVSS VL: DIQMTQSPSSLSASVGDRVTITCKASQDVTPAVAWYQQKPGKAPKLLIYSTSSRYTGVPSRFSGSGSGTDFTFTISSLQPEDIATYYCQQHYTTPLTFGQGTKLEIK
9.78

Field request: pEC50 | item: Hu1210-4 (antibody, V domains shown, Hu1210 VH.2 x Vk.1; human gamma 1 / kappa constant domains) VH: EVQLVESGGGLVKPGGSLRLSCAASGFTFSSYDMSWIRQAPGKGLEWVSTISDGGGYIYYSDSVKGRFTISRDNAKNSLYLQMNSLRAEDTAVYYCAREFGKRYALDYWGQGTTVTVSS VL: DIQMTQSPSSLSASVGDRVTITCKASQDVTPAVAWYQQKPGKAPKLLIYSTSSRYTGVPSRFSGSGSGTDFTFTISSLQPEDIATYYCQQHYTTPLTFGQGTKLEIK
9.73

Field request: pEC50 | item: Hu1210-5 (antibody, V domains shown, Hu1210 VH.2a x Vk.1; human gamma 1 / kappa constant domains) VH: EVQLVESGGGLVKPGGSLRLSCAASGFTFSSYDMSWIRQAPGKGLEWVATISDGGGYIYYSDSVKGRFTISRDNAKNSLYLQMNSLRAEDTAVYYCAREFGKRYALDYWGQGTTVTVSS VL: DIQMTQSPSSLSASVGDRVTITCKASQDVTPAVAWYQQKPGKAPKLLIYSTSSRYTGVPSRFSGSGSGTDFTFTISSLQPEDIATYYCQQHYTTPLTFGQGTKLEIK
9.71
